Biological target: T1, PTPN4, P29074
T1 sequence (P29074 512-599, limits assumed, looked up): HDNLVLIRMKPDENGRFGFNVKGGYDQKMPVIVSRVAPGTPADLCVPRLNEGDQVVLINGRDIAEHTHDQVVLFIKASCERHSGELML
Test: holdup assay
Design: key: below the threshold = too weak to quantify, mostly under pKd 3.1 to 4
Settings: plain residues with an end cap or a label only (N-terminal biotin on a linker: ttds)
PARAMETER_MEASURED: pKd

* QSARYRDTEL [TJP2, Q9UDY2] | 4.48
* SVWLRKETRV [CYSLTR2, Q9NS75] | 4.52
